The measured values listed here are drawn from paper PMC9928118.

Assign Chip Fluorescence (mean) to each entry below.
System: GST-tagged Cn
run_description: PEPperPRINT peptide microarray binding assay with GST-tagged Cn
experimental_conditions: GST-tagged Cn, mean over the spots named in Location on chip
Source text: We then estimated in-silico the binding strength of the various peptides to Cn by template-based docking followed by flexible backbone refinement using Modeller and PepCrawler (Figs 4 and S4). […] Fig 4 Medium-throughput filtering by structural modeling and microarray screening. […] (f) Scatter plot of the sequence likelihood (normalized by length, higher is better) against fluorescence level (higher is better, see Methods for details of the data analysis). […]

Q: For GST-tagged Cn, provide Chip Fluorescence (mean) of TFWTNPQFTITLEEPD [SeqRBMlowT_1494] please.
Ans: -0.5285

Q: For GST-tagged Cn, provide Chip Fluorescence (mean) of KKMAPPAINIDFAPTN [SeqRBMlowT_341] please.
Ans: -0.05324

Q: For GST-tagged Cn, provide Chip Fluorescence (mean) of PFEKNDIQQIHLEEHP [Seqshuffled_9861] please.
Ans: 0.78

Q: For GST-tagged Cn, provide Chip Fluorescence (mean) of KAYMSPFMQFVDAGRR [SeqSFB3_Nasonia_vitripennis] please.
Ans: -0.04342

Q: For GST-tagged Cn, provide Chip Fluorescence (mean) of RSYVNPAYSFTFDSKA [SeqSFB3_Lachancea_meyersii] please.
Ans: -0.902

Q: For GST-tagged Cn, provide Chip Fluorescence (mean) of SSLECPHVQVTVSGQR [SeqRBM_6881] please.
Ans: 0.9297

Q: For GST-tagged Cn, provide Chip Fluorescence (mean) of TFWTNPQYRITLDSSD [SeqRBMlowT_972] please.
Ans: -0.3429

Q: For GST-tagged Cn, provide Chip Fluorescence (mean) of NNSESPKIAITTTLGN [SeqRBM_1677] please.
Ans: -0.4285

Q: For GST-tagged Cn, provide Chip Fluorescence (mean) of PFLAEQYMVVEEMTVS [Seqshuffled_9732] please.
Ans: -0.4167

Q: For GST-tagged Cn, provide Chip Fluorescence (mean) of PDESTPEITITPAELP [SeqRBMlowT_5714] please.
Ans: -0.09544

Q: For GST-tagged Cn, provide Chip Fluorescence (mean) of GGPGTPGRPGIHSAPS [SeqRBM_5424] please.
Ans: -0.88

Q: For GST-tagged Cn, provide Chip Fluorescence (mean) of TFWTNPQYRVKLEDPD [SeqRBMlowT_28] please.
Ans: 0.4012

Q: For GST-tagged Cn, provide Chip Fluorescence (mean) of TFWSNPQFKITLDEPD [SeqRBMlowT_5518] please.
Ans: -0.7061

Q: For GST-tagged Cn, provide Chip Fluorescence (mean) of MLDAIPEVVVSPPEEP [SeqRBM_4087] please.
Ans: -0.168

Q: For GST-tagged Cn, provide Chip Fluorescence (mean) of HSKLIPKLSVQSPVHH [SeqRBMlowT_1714] please.
Ans: -0.5381

Q: For GST-tagged Cn, provide Chip Fluorescence (mean) of KVMAVPRISRSPTQVL [SeqRBM_6937] please.
Ans: 0.723

Q: For GST-tagged Cn, provide Chip Fluorescence (mean) of AKMAPPAINIDFAPPN [SeqRBMlowT_7690] please.
Ans: -0.1462

Q: For GST-tagged Cn, provide Chip Fluorescence (mean) of RAYMNPFMTFIDGGHR [SeqRBMlowT_1518] please.
Ans: 0.8819

Q: For GST-tagged Cn, provide Chip Fluorescence (mean) of TFWTNPQFRLKLIDPD [SeqRBMlowT_9197] please.
Ans: -0.7542

Q: For GST-tagged Cn, provide Chip Fluorescence (mean) of TFWSNPQFKVSLEEPD [SeqRBMlowT_2967] please.
Ans: -0.5694

Q: For GST-tagged Cn, provide Chip Fluorescence (mean) of PMMAVPSISSDVSNAP [SeqRBM_5566] please.
Ans: 0.7603

Q: For GST-tagged Cn, provide Chip Fluorescence (mean) of PGLYENALGMESFSIS [SeqCRZ1_Ajellomyces_capsulatus] please.
Ans: 0.6954

Q: For GST-tagged Cn, provide Chip Fluorescence (mean) of RTYINPFMKFTIWGTQ [SeqRBM_6386] please.
Ans: -0.5299

Q: For GST-tagged Cn, provide Chip Fluorescence (mean) of APSKITEVVVHECEVL [SeqRBM_4402] please.
Ans: -0.4054

Q: For GST-tagged Cn, provide Chip Fluorescence (mean) of TFWINPQFKVRLDEID [SeqCAPN11_Boiga_irregularis] please.
Ans: 0.8018

Q: For GST-tagged Cn, provide Chip Fluorescence (mean) of TFWTNPQFRLKVVDPD [SeqRBMlowT_7375] please.
Ans: 0.5158

Q: For GST-tagged Cn, provide Chip Fluorescence (mean) of PALESPRIEITSYLGM [SeqNFATC1_Canis_lupus] please.
Ans: -0.48

Q: For GST-tagged Cn, provide Chip Fluorescence (mean) of LKKTYLRREMHGCYNH [Seqrandom_9958] please.
Ans: 0.777

Q: For GST-tagged Cn, provide Chip Fluorescence (mean) of RQPGQALLTLRGHKKQ [SeqRBMlowT_5816] please.
Ans: 0.5912

Q: For GST-tagged Cn, provide Chip Fluorescence (mean) of NVLRISSARPDNRGVY [SeqCEACAM5_Musca_domestica] please.
Ans: 0.6708

Q: For GST-tagged Cn, provide Chip Fluorescence (mean) of KDMLIPRPSSQDSGAY [SeqRBM_5587] please.
Ans: -0.4019

Q: For GST-tagged Cn, provide Chip Fluorescence (mean) of ESLWIPNATPTNFGVY [SeqRBM_4910] please.
Ans: 0.8461

Q: For GST-tagged Cn, provide Chip Fluorescence (mean) of REPGVPPLELKGHLSL [SeqRBM_7171] please.
Ans: 0.8874

Q: For GST-tagged Cn, provide Chip Fluorescence (mean) of NIIKTLTAVARYCQHF [Seqrandom_9968] please.
Ans: -0.3065

Q: For GST-tagged Cn, provide Chip Fluorescence (mean) of HVEDTTEFALQRPSND [Seqshuffled_9422] please.
Ans: 0.1762

Q: For GST-tagged Cn, provide Chip Fluorescence (mean) of PALYDNALGIESFTLS [SeqCRZ1_Penicillium_arizonense] please.
Ans: 0.6125

Q: For GST-tagged Cn, provide Chip Fluorescence (mean) of LNLKIPIVLLNIISAI [SeqRBM_9387] please.
Ans: 0.2818

Q: For GST-tagged Cn, provide Chip Fluorescence (mean) of TFWTNPQFKITLEDPD [SeqRBMlowT_205] please.
Ans: -0.4239

Q: For GST-tagged Cn, provide Chip Fluorescence (mean) of NAWKNPGQETHTTKKL [Seqshuffled_9929] please.
Ans: -0.5656

Q: For GST-tagged Cn, provide Chip Fluorescence (mean) of FSMLIGMHEPHPNTTI [Seqrandom_9971] please.
Ans: -0.1169

Q: For GST-tagged Cn, provide Chip Fluorescence (mean) of STSSLPTFSFSSPLPS [SeqRBMlowT_3929] please.
Ans: -1.084

Q: For GST-tagged Cn, provide Chip Fluorescence (mean) of MRRERSNRAMFKVNQH [Seqrandom_9977] please.
Ans: -0.1357

Q: For GST-tagged Cn, provide Chip Fluorescence (mean) of RQPGTALLTLRGHKKQ [SeqRBMlowT_5805] please.
Ans: 0.2674

Q: For GST-tagged Cn, provide Chip Fluorescence (mean) of TFWTNPQYRIKLEEED [SeqRBMlowT_1298] please.
Ans: 0.439

Q: For GST-tagged Cn, provide Chip Fluorescence (mean) of VEEAFPQIIISAEELP [SeqTRESK_Tarsius_syrichta] please.
Ans: -0.4076

Q: For GST-tagged Cn, provide Chip Fluorescence (mean) of RAYINPFMQFIDGGRR [SeqRBMlowT_1520] please.
Ans: -0.3387

Q: For GST-tagged Cn, provide Chip Fluorescence (mean) of TFWHNPQYVINLEDPD [SeqCAPN11_Anopheles_dirus] please.
Ans: 0.5719
